TARGET_UNDER_TEST: AKT3 (Homo sapiens)
Construct: purchased SignalChem
Sequence (Q9Y243 whole entry): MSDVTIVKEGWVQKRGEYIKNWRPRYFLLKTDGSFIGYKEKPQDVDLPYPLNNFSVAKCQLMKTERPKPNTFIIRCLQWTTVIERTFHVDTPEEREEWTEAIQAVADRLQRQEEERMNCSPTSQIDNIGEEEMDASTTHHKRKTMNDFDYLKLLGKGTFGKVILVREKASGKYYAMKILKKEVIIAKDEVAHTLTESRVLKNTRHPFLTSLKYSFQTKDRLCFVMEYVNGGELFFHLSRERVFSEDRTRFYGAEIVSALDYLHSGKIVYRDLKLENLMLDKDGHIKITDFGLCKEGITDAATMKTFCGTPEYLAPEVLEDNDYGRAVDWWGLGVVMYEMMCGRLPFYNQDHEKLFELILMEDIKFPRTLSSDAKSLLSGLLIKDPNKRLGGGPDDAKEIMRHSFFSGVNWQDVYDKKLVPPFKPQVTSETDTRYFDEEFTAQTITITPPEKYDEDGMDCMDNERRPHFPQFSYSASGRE
ASSAY_SUMMARY: AKT Kinase Assay (IMAP fluorescent polarisation) vs AKT3
Assay type: biochemical
PROTOCOL_CONDITIONS: activated AKT3, FAM Crosstide substrate
Where a name gives a salt, the structure may show the parent alone.
TEST_READOUT: IC50

// known answers, use as guide
{"MOLECULE": "NC1(c2ccc(-c3oc4c(=O)[nH]ccc4c3-c3ccccc3)cc2)CCC1 [Example 128]", "TARGET_UNDER_TEST": "AKT3 (Homo sapiens)", "IC50": "1 to 10 µM"}
{"MOLECULE": "NC1(c2ccc(-c3oc4nc(NCCO)ncc4c3-c3ccccc3)cc2)CCC1 [Example 51]", "TARGET_UNDER_TEST": "AKT3 (Homo sapiens)", "IC50": "> 10 µM"}
{"MOLECULE": "CSc1nc(C(F)(F)F)c2c(-c3ccccc3)c(-c3ccc(C4(N)CCC4)cc3)oc2n1 [Example 74, hydrochloride]", "TARGET_UNDER_TEST": "AKT3 (Homo sapiens)", "IC50": "> 10 µM"}
{"MOLECULE": "Cn1c(=O)[nH]c2oc(-c3ccc(C4(N)CCC4)cc3)c(-c3ccccc3)c2c1=O [Example 124, hydrochloride]", "TARGET_UNDER_TEST": "AKT3 (Homo sapiens)", "IC50": "> 10 µM"}
{"MOLECULE": "COc1nc(N(C)C)nc2oc(-c3ccc(C4(N)CCC4)cc3)c(-c3ccccc3)c12 [Example 26]", "TARGET_UNDER_TEST": "AKT3 (Homo sapiens)", "IC50": "> 10 µM"}

The molecule COc1nc(N2CC[C@H](O)C2)nc2oc(-c3ccc(C4(N)CCC4)cc3)c(-c3ccccc3)c12 [Example 35] showed IC50 equal to 1 to 10 µM

NC1(c2ccc(-c3oc4c(Br)cn(CCF)c(=O)c4c3-c3ccccc3)cc2)CCC1 [Example 112] has a reported IC50 of > 10 µM

get_value(item= NC1(c2ccc(-c3oc4nc(NCCO)nc(C(F)(F)F)c4c3-c3ccccc3)cc2)CCC1 [Example 73] , readout=IC50) returns > 10 µM

###

TARGET_UNDER_TEST: AKT1 (Homo sapiens)
Construct: purchased SignalChem
Sequence (P31749 whole entry): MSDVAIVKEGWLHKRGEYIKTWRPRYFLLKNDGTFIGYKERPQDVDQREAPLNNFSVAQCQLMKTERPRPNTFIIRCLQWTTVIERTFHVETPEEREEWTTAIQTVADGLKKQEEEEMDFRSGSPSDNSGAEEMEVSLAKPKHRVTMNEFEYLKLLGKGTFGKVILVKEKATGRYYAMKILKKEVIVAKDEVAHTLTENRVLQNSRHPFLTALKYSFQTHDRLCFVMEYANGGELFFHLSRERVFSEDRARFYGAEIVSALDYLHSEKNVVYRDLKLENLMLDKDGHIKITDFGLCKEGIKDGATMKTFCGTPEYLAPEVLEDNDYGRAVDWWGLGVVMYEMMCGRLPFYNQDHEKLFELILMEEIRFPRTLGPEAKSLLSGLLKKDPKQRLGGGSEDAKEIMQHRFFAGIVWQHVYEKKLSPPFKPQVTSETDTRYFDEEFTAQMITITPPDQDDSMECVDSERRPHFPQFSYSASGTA
ASSAY_SUMMARY: AKT Kinase Assay (IMAP fluorescent polarisation) vs AKT1
Assay type: biochemical
PROTOCOL_CONDITIONS: activated AKT1, FAM Crosstide substrate
pIC50: −log10 of the molar value. Structures can show the parent of a compound that is named as a salt.
Reported pIC50 values follow for various compounds

Worked set:
{"COMPOUND": "NC1(c2ccc(-c3oc4ncc(COCc5ccccc5)nc4c3-c3ccccc3)cc2)CCC1", "pIC50": "6.00 to 7.00"}
{"COMPOUND": "Cn1c(NCC(N)=O)nc2oc(-c3ccc(C4(N)CCC4)cc3)c(-c3ccccc3)c2c1=O", "pIC50": "6.00 to 7.00"}

// sample COc1nc(NCCN2CCN(C)CC2)nc2oc(-c3ccc(C4(N)CCC4)cc3)c(-c3ccccc3)c12 , its pIC50 was ≥ 7.00

Recorded pIC50 (compound NC1(c2ccc(-c3oc4ncc(Cl)nc4c3-c3ccccc3)cc2)CCC1 ): 6.00 to 7.00

Data point: NC1(c2ccc(-c3oc4ncc(C5CC5)nc4c3-c3ccccc3)cc2)CCC1 ; pIC50 = 6.00 to 7.00

Reported pIC50 of Cn1cc(C(N)=O)c2oc(-c3ccc(C4(N)CCC4)cc3)c(-c3ccccc3)c2c1=O : 6.00 to 7.00

Measured pIC50 of Cn1cc(-c2ccn[nH]2)c2oc(-c3ccc(C4(N)CCC4)cc3)c(-c3ccccc3)c2c1=O : ≥ 7.00

Kindly note the recorded pIC50 for NC(=O)c1cccc(-c2cnc3oc(-c4ccc(C5(N)CCC5)cc4)c(-c4ccccc4)c3n2)c1 [Example 152, HCl] , which is 6.00 to 7.00

For this compound ( Cn1c(N2CC(O)C2)nc2oc(-c3ccc(C4(N)CCC4)cc3)c(-c3ccccc3)c2c1=O ), measured pIC50 is 6.00 to 7.00

For record NC1(c2ccc(-c3oc4cnccc4c3I)cc2)CCC1 the listed pIC50 is 5.00 to 6.00

The reported pIC50 of the compound CNc1nc2oc(-c3ccc(C4(N)CCC4)cc3)c(-c3ccccc3)c2c(=O)n1CC(F)(F)F was 6.00 to 7.00

So for CNc1nc(OCCF)c2c(-c3ccccc3)c(-c3ccc(C4(N)CCC4)cc3)oc2n1 [Example 89, HCl] , the logged pIC50 turned out to be 6.00 to 7.00
